Biological target: CAMK1 (human)
Assay: radiometric filter-binding kinase assay, Kinase HotSpot
Settings: compound 0.5 µM; ATP 10 µM
propertyMeasured: residual activity (%)
Numbers only, in %.

Below are 5 compounds. Give each one its residual activity.
1. COc1ccc2c(c1)/C(=C/c1cnc[nH]1)C(O)=N2
2. COc1ccc(C(=O)Nc2sc3c(c2C(N)=O)CCCC3)cc1OC
3. O=C1C(Cl)=C(N2C(=O)CCC2=O)C(=O)c2ccccc21
4. Ic1cccc(CSc2nnc(-c3ccncc3)o2)c1
5. O=C1NC(=O)c2c1c1c3ccccc3[nH]c1n1cncc21

-- reply
1. 103
2. 90.9
3. 98.3
4. 102
5. 83.3

Quick one: give me residual activity for each item below, same order please.
1. CS(=O)(=O)CCNCc1ccc(-c2ccc3ncnc(Nc4ccc(OCc5cccc(F)c5)c(Cl)c4)c3c2)o1
2. Cc1nc(-c2ccccc2)c(-c2ccncc2)o1
3. O=C1c2ccccc2-c2nc3nnnn3nc21
4. NC(=O)c1cccc(-c2cc(Nc3ccc(OC(F)(F)F)cc3)ncn2)c1
5. Fc1ccc(-c2nc3n(c2-c2ccncc2)CCS3)cc1
6. c1ccc2c(-c3ccncc3)c[nH]c2c1

-- reply
1. 102
2. 105
3. 68.7
4. 97.5
5. 107
6. 108

Below are some compounds; for each one, tell me its residual activity.
1. COc1cc2ncnc(Nc3ccc(Oc4ccccc4)cc3)c2cc1OC
2. N#C/C(=C\c1ccc(O)c(O)c1)C(=O)NCc1ccccc1
3. Cc1cccc(-c2nc(C(C)(C)C)[nH]c2-c2ccc3c(c2)OCO3)n1
4. COc1ccc(Cl)cc1NC(=O)Nc1cc(C)nc2ccccc12
5. COc1ccc(S(=O)(=O)N(CCO)c2ccccc2CN(C)C/C=C/c2ccc(Cl)cc2)cc1

-- reply
1: 105; 2: 93; 3: 99.8; 4: 91.7; 5: 105

Every entry's value here was drawn from the kinase profiling compilation of Christmann-Franck et al. (2016).
